- method-description: NCI Yeast Anticancer Drug Screen. Data for the cln2 rad14 strain (AID 165);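 note: 0% = growth equal to vehicle treated cultures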
- assay-conditions: S. cerevisiae cln2 rad14 strain, at 50.0 µM, hits give high values
Compounds without any hit were thinned out: in the full panel of roughly 79,000, 15% have a hit.
Quick list: growth inhibition per entry.
Report the value in % with no unit label.

>  <molecule>
CCCOC(=O)c1ccccc1C=O

>  <observed-result>
-49.9

$$$$

IN: I'd like to know its growth inhibition. The molecule in question is CC1=NN2C(=O)C(C)SC2=NC(C)(C)C1 (configuration not stated)
OUT: 29.2

IN: Same thing, different molecule: COC(=O)C(CS)NC(=O)CNC(=O)CNC(=O)C(CCCCNC(=O)OCc1ccccc1)NC(=O)CNC(=O)C(CSC(c1ccccc1)(c1ccccc1)c1ccccc1)NC(=O)OCc1ccccc1 (configuration not stated)
OUT: -17.2

IN: Same thing, different molecule: CN(/N=C\c1ccccc1)C(c1ccccc1)N(C)/N=C/c1ccccc1 (configuration not stated)
OUT: -11.7

###

- method-description: NCI Yeast Anticancer Drug Screen. Data for the sgs1 mgt1 strain (AID 161);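 note: 0% = growth of cultures given vehicle only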
- assay-conditions: S. cerevisiae sgs1 mgt1 strain, at 50.0 µM, hits give high values
This is part of a sample that, as a whole, favours compounds with a hit. Of some 79,000 tested, about 15% had one in any assay.
endpoint-name: growth inhibition (%)
Report the value in % with no unit label.

>  <molecule>
COc1ccc2ccccc2c1CN1CCOCCOCCN(Cc2c(OC)ccc3ccccc23)CCOCCOCC1

>  <readout-units>
%

>  <growth inhibition>
-23.4

$$$$
>  <molecule>
COc1cc(C(C#N)NNc2nc(C)cc(=O)[nH]2)cc(OC)c1OC (stereo unspecified)

>  <readout-units>
%

>  <growth inhibition>
-31.1

$$$$
>  <molecule>
C[C@]12CC[C@H](OC3CCCCO3)CC1=CC[C@@H]1C2CC[C@]2(C)/C(=N/OCCC#N)CCC12 (stereo partly specified)

>  <readout-units>
%

>  <growth inhibition>
-3.85

$$$$
>  <molecule>
N#CC(NNC(=O)c1ccccc1O)c1ccccc1 (stereo unspecified)

>  <readout-units>
%

>  <growth inhibition>
9.85

$$$$
>  <molecule>
c1ccc(N=C2SC(=NC3CCCCC3)N(C3CCCCC3)C2=Nc2ccccc2)cc1

>  <readout-units>
%

>  <growth inhibition>
-0.05

$$$$
>  <molecule>
CC(NNC(=S)N1CCCCCC1)c1cccc[n+]1[O-] (stereo unspecified)

>  <readout-units>
%

>  <growth inhibition>
96.5

$$$$
>  <molecule>
CC(=O)OCc1cc2c(cc1CNCc1ccccc1)OCO2

>  <readout-units>
%

>  <growth inhibition>
7.25

$$$$
>  <molecule>
O=[N+]([O-])c1cc2c(c([N+](=O)[O-])c1)Nc1cc(Cl)ccc1O2

>  <readout-units>
%

>  <growth inhibition>
17.6

$$$$

IN: I'd like to know its growth inhibition. The molecule in question is CC1(C)C=C(O)C=C(O)C1
OUT: 17.4

IN: Same thing, different molecule: CS(=O)(=O)O[C@H]1[C@H](O)c2ccccc2[C@@H]1N=[N+]=[N-]
OUT: -2.05

IN: Same thing, different molecule: O=C(O)c1c(I)cc(I)c(O)c1I
OUT: 1.75

IN: Same thing, different molecule: O=C(Nc1ccccc1)c1nccc2ccccc12
OUT: -6.45

IN: Same thing, different molecule: CCC(C)C(C)(CO)CO (stereo unspecified)
OUT: -3.7
